- target system: Juvenile hormone epoxide hydrolase (Manduca sexta, UniProt Q25489)
- Sequence (Q25489 whole entry): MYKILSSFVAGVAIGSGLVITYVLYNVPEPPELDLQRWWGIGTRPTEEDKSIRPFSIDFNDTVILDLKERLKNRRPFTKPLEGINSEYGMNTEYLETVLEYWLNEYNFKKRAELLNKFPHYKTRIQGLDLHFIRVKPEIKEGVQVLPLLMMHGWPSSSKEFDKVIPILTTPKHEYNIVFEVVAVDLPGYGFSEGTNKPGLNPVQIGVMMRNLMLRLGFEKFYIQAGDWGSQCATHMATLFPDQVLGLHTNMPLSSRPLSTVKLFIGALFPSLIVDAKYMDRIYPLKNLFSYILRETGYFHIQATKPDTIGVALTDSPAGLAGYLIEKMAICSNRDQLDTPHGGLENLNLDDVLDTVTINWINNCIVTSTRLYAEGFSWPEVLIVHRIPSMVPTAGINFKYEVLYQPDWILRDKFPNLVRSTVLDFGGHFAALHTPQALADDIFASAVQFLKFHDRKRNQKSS
Catalogue of compounds with associated pIC50
pIC50 here is simply -log10 of the concentration when that concentration is written in mol/L.

Completed entries (count: 3):
>  <compound>
CCCCCCCCCCCCNC(=O)NC [N-Methyl-N -dodecyl urea (4)]

>  <target system>
Juvenile hormone epoxide hydrolase (Manduca sexta, UniProt Q25489)

>  <pIC50>
4.97

$$$$
>  <compound>
CCCCCCCCCCCCCNC(=O)NC [N-Methyl-N -tridecyl urea (9)]

>  <target system>
Juvenile hormone epoxide hydrolase (Manduca sexta, UniProt Q25489)

>  <pIC50>
5.00

$$$$
>  <compound>
CCCCCCCCCCCCNC(=O)NCC(C)C [US8815951, 478]

>  <target system>
Juvenile hormone epoxide hydrolase (Manduca sexta, UniProt Q25489)

>  <pIC50>
5.64

$$$$

Query string: I have this compound here, CNC(=O)NCCCCCCCCC(C)C [N-Methyl-N -(9-methyldecyl) urea (1)] , and I need its recorded pIC50.
Result string: 5.19

Query string: I have this compound here, CNC(=O)NCCCCCCCCCCC(C)C [N-Methyl-N -(11-methyldodecyl) urea (3)] , and I need its recorded pIC50.
Result string: 4.52

Query string: I have this compound here, CCCCCCCCCCCNC(=O)NC [N-methyl-N -undecyl urea (7)] , and I need its recorded pIC50.
Result string: 5.37
